Some molecules, each annotated with its measured GI50.
# Test system: TK-10 renal
# PROCEDURE DETAILS: NCI tumour cell line growth inhibition, 48 h

Example entries begin here.
SMILES ENTRY: CC[C@]1(O)C[C@@H]2CN(CCc3c([nH]c4ccccc34)[C@@](C(=O)OC)(c3cc4c(cc3OC)N(C)[C@H]3[C@@](O)(C(N)=O)[C@H](O)[C@]5(CC)[C@@H]6C[C@@H]6CN6CC[C@]43[C@@H]65)C2)C1
GI50: 13 µM

SMILES ENTRY: CCOC(=O)c1c2c(n(Cc3ccccc3)c1C)-c1nc(Cc3ccccc3)[nH]c1C(=O)C2=O
GI50: 1.48 µM

SMILES ENTRY: O=C(Nc1ccc(Br)cc1)Nc1nn(C(=O)Nc2ccc(Br)cc2)c2ccccc12
GI50: 39.2 µM

SMILES ENTRY: C[C@]12CC[C@@H](OC(=O)N(CCCl)N=O)C[C@@H]1CC[C@@H]1[C@@H]2CC[C@]2(C)C(=O)CC[C@@H]12
GI50: 12 µM

SMILES ENTRY: Cc1nn(CNc2ccccc2C(F)(F)F)c(=S)n1/N=C/c1ccc(F)cc1
GI50: 53.8 µM

SMILES ENTRY: O=C(N/N=C/c1ccc(Cl)cc1)c1[nH]c2ccc(Cl)cc2c1-c1ccccc1
GI50: 3.3 µM

SMILES ENTRY: CCCCN(CCCC)CCc1c(C)cc(C)c(CCN(CCCC)CCCC)c1O
GI50: 3.03 µM

SMILES ENTRY: CCCCCCNC(=O)n1cc(F)c(=O)[nH]c1=O
GI50: 4.71 µM

# GI50 measured on TK-10 renal for item "COc1cc2c3c(ncc2c(OC)c1OC)-c1cc2c(cc1C3)OCO2" = 19.3 µM

TK-10 renal GI50 of "Oc1c(CN2CCCC2)cc(CSCc2ccccc2)c2cccnc12" is 0.775 µM

---

# System: HOP-92 NSCLC
# PROCEDURE DETAILS: NCI tumour cell line growth inhibition, 48 h; in the data active means GI50 below about 0.43 µM; inactive means the rest
Pick one: 1 for active, 0 for inactive

SMILES ENTRY: Oc1c(CN2CCCC2)cc(CSCc2ccccc2)c2cccnc12
TARGET OR TEST SYSTEM: HOP-92 NSCLC
CATEGORY: 0

SMILES ENTRY: CCCCN(CC)c1ncnc2ccc(Br)cc12
TARGET OR TEST SYSTEM: HOP-92 NSCLC
CATEGORY: 0

SMILES ENTRY: CC(=O)c1cc(-c2ccccc2N)n(-c2ccc3c(c2)OCO3)c1C
TARGET OR TEST SYSTEM: HOP-92 NSCLC
CATEGORY: 1

query: Called result for "CC1(C)[C@@H](OC(N)=O)C=C[C@]2(CO)[C@H]3CC[C@]4(C)[C@@H](c5ccc(=O)oc5)[C@@H](Cl)C[C@]4(O)C3=CC[C@@H]12"
result: 1

query: Which outcome was assigned to "Cc1cc2nc(-c3c(N)ncc(C#N)c3-c3ccc(Cl)cc3)[nH]c2cc1C" in this test?
result: 1

query: Please share the test call associated with "Cn1cc(C2=C(c3cn(C)c4cc(N)ccc34)C(=O)NC2=O)c2ccccc21" .
result: 0

---

# System: HOP-62 NSCLC
# PROCEDURE DETAILS: NCI tumour cell line growth inhibition, 48 h
MEASUREMENT KIND: TGI

Answered cases to consult:
COMPOUND: COc1cc2oc(-c3ccc4c(c3)OCO4)c(OC)c(=O)c2c(O)c1OC
TGI: > 50 µM

COMPOUND: COc1cc(S(=O)(=O)Nc2ccc(-c3csc(/N=C\c4ccccc4)n3)cc2)ccc1Cl
TGI: > 100 µM

COMPOUND: CS(=O)(=O)NNS(=O)(=O)c1ccc(Cl)cc1
TGI: > 100 µM

Form field TGI, entry COC(=O)C(CC(=O)c1c[nH]c2ccccc12)c1c[nH]c2ccccc12 (stereo unspecified) : 54.8 µM

Lab note: "O=[N+]([O-])c1cc(F)ccc1Sc1ccccc1" gave TGI of > 10 µM

Query "Clc1ccc2ns[s+]c2c1" yields TGI of > 29.9 µM

---

# System: TK-10 renal
# PROCEDURE DETAILS: NCI tumour cell line growth inhibition, 48 h
MEASUREMENT KIND: TGI

Previously resolved entries follow.
COMPOUND: Nc1cc2[nH]cnc2c(=O)[nH]1
TARGET OR TEST SYSTEM: TK-10 renal
TGI: > 300 µM
--
COMPOUND: NC(=S)N/N=C1\CCCC1C(O)(C(F)(F)Cl)C(F)(F)Cl (stereo not drawn)
TARGET OR TEST SYSTEM: TK-10 renal
TGI: > 10 µM

Now for a further compound.
Short answer for "CSc1nsc(S/C=C\C(=O)c2ccc(C)cc2)n1" : TGI was 33.7 µM

---

# Tested on: NCI-H522 lung
# PROCEDURE DETAILS: NCI tumour cell line growth inhibition, 48 h
TGI: recorded values
Numeric answer only, unit µM assumed.

COMPOUND: CCCCCCNC(=O)n1cc(F)c(=O)[nH]c1=O
TARGET OR TEST SYSTEM: NCI-H522 lung
UNIT INFO: µM
RECORDED MEASUREMENT: 25

COMPOUND: C[C@]12CC[C@@H](OC(=O)N(CCCl)N=O)C[C@@H]1CC[C@@H]1[C@@H]2CC[C@]2(C)C(=O)CC[C@@H]12
TARGET OR TEST SYSTEM: NCI-H522 lung
UNIT INFO: µM
RECORDED MEASUREMENT: 30.8

COMPOUND: COC(=O)[C@H]1[C@H]2C[C@@H]3c4[nH]c5cc(OC)ccc5c4CCN3C[C@H]2C[C@@H](OC(=O)/C=C/c2cc(OC)c(OC)c(OC)c2)[C@@H]1OC
TARGET OR TEST SYSTEM: NCI-H522 lung
UNIT INFO: µM
RECORDED MEASUREMENT: 27

COMPOUND: Clc1ccc2c(c1)C(N1CCNCC1)=Nc1ccccc1O2
TARGET OR TEST SYSTEM: NCI-H522 lung
UNIT INFO: µM
RECORDED MEASUREMENT: 3.87

COMPOUND: COc1ccc(/C=C\c2cc(OC)c(OC)c(OC)c2)c(NS(=O)(=O)c2ccc(Cl)cc2)c1O
TARGET OR TEST SYSTEM: NCI-H522 lung
UNIT INFO: µM
RECORDED MEASUREMENT: 0.607

COMPOUND: CC12CC=CCC1CCC1C2CCC2(C)C(c3ccc(=O)oc3)CCC12O (stereo unspecified)
TARGET OR TEST SYSTEM: NCI-H522 lung
UNIT INFO: µM
RECORDED MEASUREMENT: 0.273

COMPOUND: Cc1cc2nc(-c3c(N)ncc(C#N)c3-c3ccc(Cl)cc3)[nH]c2cc1C
TARGET OR TEST SYSTEM: NCI-H522 lung
UNIT INFO: µM
RECORDED MEASUREMENT: 27.9

COMPOUND: COc1ccc2c(c1)C(=O)C1CCC(=O)N1C2c1ccc2c(c1)OCO2 (stereo unspecified)
TARGET OR TEST SYSTEM: NCI-H522 lung
UNIT INFO: µM
RECORDED MEASUREMENT: 21.6

Now consider a different compound.
The compound "COc1cc2c(c(OC)c1)C(=O)O[C@H](C)CCCC/C=C/C2" showed TGI equal to 24

---

# Tested on: MOLT-4 leukemia
# PROCEDURE DETAILS: NCI tumour cell line growth inhibition, 48 h
# Lookup of reported TGI keyed by entry

Example results:
MOLECULE: Cc1nc2cccc(F)c2c(=O)n1-c1nnc(C(F)(F)F)s1
MEASUREMENT KIND: TGI
RECORDED MEASUREMENT: > 10 µM
--
MOLECULE: O=C1CCN2CCC(=O)c3c2c(cc2ccccc32)N1
MEASUREMENT KIND: TGI
RECORDED MEASUREMENT: > 100 µM
--
MOLECULE: COc1c(Sc2ccccc2)cc(Sc2ccccc2)c2cccnc12
MEASUREMENT KIND: TGI
RECORDED MEASUREMENT: 48.1 µM
--
MOLECULE: Cc1cn(CCOCCOC(=O)NC(CCCNC(N)=O)C(=O)O)c(=O)[nH]c1=O (stereo not given)
MEASUREMENT KIND: TGI
RECORDED MEASUREMENT: > 100 µM
--
MOLECULE: COc1ccc([C@@H](O)c2cc(-c3ncnc4cc(N5CCOCC5)ccc34)c(F)cc2Cl)nn1
MEASUREMENT KIND: TGI
RECORDED MEASUREMENT: 41.1 µM
--
MOLECULE: C[C@]12CCC(=O)C=C1CC[C@@H]1[C@@H]2[C@@H](O)C[C@@]2(C)[C@H]1CC[C@]2(O)C(=O)COC(=O)CCC1CCCC1
MEASUREMENT KIND: TGI
RECORDED MEASUREMENT: > 100 µM

Read the next record carefully.
Query "CC(C)(Cc1ccccc1)N1C(=O)N1C(C)(C)Cc1ccccc1" yields TGI of 55.6 µM

Reference source: PubChem BioAssay (NCI)
